B1: GFOD1 (parent)
chain: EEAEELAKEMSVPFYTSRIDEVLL

Variants of: B1
Test: protein stability index of a GFP-peptide fusion (GPS, HEK-293T) (PSI 1-6); higher = more stable;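 also: lentivirally expressed fusions sorted by FACS into six bins by GFP to DsRed ratio, PSI derived from sequencing read proportions per bin multiplied by bin number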
Details: c terminus: a fixed tail appended
# reported protein stability index; entries follow
# answer = number (no unit)

protein stability index for F14T ? 4.51

protein stability index for E21M ? 1.78

protein stability index for Y15R ? 4.2

protein stability index for P13N ? 3.78

protein stability index for E2C ? 3.06

protein stability index for E9K ? 2.66

protein stability index for E2Y ? 2.39

protein stability index for E1R ? 3.33

protein stability index for E21K ? 2.56

protein stability index for E2N ? 4

Others:
protein stability index for E5I ? 2.57

protein stability index for T16W ? 2.32

protein stability index for R18I ? 2.92

protein stability index for P13K ? 3.19

protein stability index for S17R ? 3.9
